ENDPOINT_LABEL: melting point

CC(=O)NS(=O)(=O)c1cccc(NC(=O)Nc2ccc(C(F)(F)F)cc2)c1 [Compound 20] : 115 to 121 °C
O=C(O)CCCNS(=O)(=O)c1ccc(NC(=O)Nc2ccc(C(F)(F)F)cc2)cc1 [Compound 23] : 172 to 175 °C
O=C(Nc1ccc(C(F)(F)F)cc1)Nc1cccc(S(=O)(=O)Nc2ccc(Cl)cc2)c1 [Compound 26] : 196 to 198 °C

Q: Give its melting point value. Item: CNS(=O)(=O)c1cccc(NC(=O)Nc2ccc(C(F)(F)F)cc2)c1 [Compound 12]
Ans: 238 to 240 °C

---

Test system: soluble epoxide hydrolase (sEH)
Experiment: Fluorescent assay for mouse and human soluble epoxide hydrolase (CMNPC substrate)
Format: biochemical
Conditions: Conc. 50 nM; substrate CMNPC 5 μM, 30° C.
ENDPOINT_LABEL: % Inhibition (%)

O=C(Nc1ccc(C(F)(F)F)cc1)Nc1ccc(S(=O)(=O)NCCN2CCOCC2)cc1 : 91
CNS(=O)(=O)c1cccc(NC(=O)Nc2ccc(C(F)(F)F)cc2)c1 : 85
O=C(Nc1ccc(C(F)(F)F)cc1)Nc1cccc(S(=O)(=O)Nc2ccc(Cl)cc2)c1 : 99

---

System: soluble epoxide hydrolase (sEH)
Test: Fluorescent assay for mouse and human soluble epoxide hydrolase (CMNPC substrate)
Type: biochemical
Details: Conc. 50 nM; substrate CMNPC 5 μM, 30° C.
ENDPOINT_LABEL: % Inhibition (%)

O=C(Nc1ccc(C(F)(F)F)cc1)Nc1cccc(S(=O)(=O)NCCN2CCOCC2)c1 [Compound 8] : 94
O=C(O)CCCNS(=O)(=O)c1ccc(NC(=O)Nc2ccc(C(F)(F)F)cc2)cc1 [Compound 23] : 80
NS(=O)(=O)c1cccc(NC(=O)Nc2ccc(C(F)(F)F)cc2)c1 [Compound 4] : 75
O=C(Nc1ccc(C(F)(F)F)cc1)Nc1cccc(S(=O)(=O)N2CCOCC2)c1 [Compound 28] : 93
O=C(Nc1ccc(C(F)(F)F)cc1)Nc1ccc(S(=O)(=O)N2CCOCC2)cc1 [Compound 27] : 95
CC(C)N1CCN(S(=O)(=O)c2cccc(NC(=O)Nc3ccc(C(F)(F)F)cc3)c2)CC1 [Compound 16] : 92
CC(C)N1CCN(S(=O)(=O)c2ccc(NC(=O)Nc3ccc(C(F)(F)F)cc3)cc2)CC1 [Compound 15] : 90
O=C(Nc1ccc(C(F)(F)F)cc1)Nc1ccc(S(=O)(=O)Nc2ccc(Cl)cc2)cc1 [Compound 25] : 99
